# assay system: T1, dimeric hIL-4R-hFc (human, UniProt P24394 26-232)
# T1 construct: also called hIL-4R-Fc; not shown: human Fc (hFc)
# T1 sequence: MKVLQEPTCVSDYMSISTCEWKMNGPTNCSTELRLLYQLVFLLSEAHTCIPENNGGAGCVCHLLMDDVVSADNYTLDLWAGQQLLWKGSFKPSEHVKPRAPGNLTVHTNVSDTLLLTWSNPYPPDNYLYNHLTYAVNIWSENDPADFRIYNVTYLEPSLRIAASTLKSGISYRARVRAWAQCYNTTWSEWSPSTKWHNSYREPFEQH
# experimental protocol: SPR; reduction of hIL-4 (50 nM) binding to captured hIL-4R-hFc after antibody; competitor hIL-4
reported metric: % Inhibition (BIAcore) (%)
Your answer is read as %, so omit the unit and give the number.

| binder | value unit | % Inhibition (BIAcore) |
| --- | --- | --- |
| VX 4E7-9 (antibody, V domains shown, 387/389; Apparently tested with mouse constant region (anti-mouse IgG capture/detection)) VH: QVQLVQSGAEVKKPGASVKVSCKASGYTFTNYGISWVRQAPGQGLEWMGWISVYNGKTNYAQKLQGRVTMTTDTSTTTAYMEMRSLRSDDTAVYYCARGSGYDLDYWGQGTLVSVSS VL: AIQMTQSPSSLSASVGDRVTITCRASQGIRNALGWYQQKPGKAPKLLIYAASSLQSGVPSRFSGSGSGTDFTLTFSSLQPEDFATYYCLQDFNYPYTFGQGTKLEIK | % | 79 |

**Query** // returns reported % Inhibition (BIAcore) for input VAK10G6-7 (antibody, V domains shown, Apparently tested with mouse constant region (anti-mouse IgG capture/detection)) VH: QVQLVESGGGVVQPGRSLRLSCTASGFTFSSFGMHWVRQAPGRGLEWVAVISYDGSKKYYADSVKVRFTISRDNSKNTLYLQMNSLRVDDTAVYFCAKEGRTGNWFDPWGQGTLVAVSS VL: DIQMTQSPSSLSASVGDRVTITCRASQAINNYLAWFQQKPGKTPKSLIFATSSLQSGVPSRFSGTGSGTDFTLTISSLQPEDFATYYCQQYNSHPWTFGQGTKVEIR
**Result** 95
